TARGET SYSTEM: UniProtKB Q06187
Sequence (Q06187 402-655 limits assumed): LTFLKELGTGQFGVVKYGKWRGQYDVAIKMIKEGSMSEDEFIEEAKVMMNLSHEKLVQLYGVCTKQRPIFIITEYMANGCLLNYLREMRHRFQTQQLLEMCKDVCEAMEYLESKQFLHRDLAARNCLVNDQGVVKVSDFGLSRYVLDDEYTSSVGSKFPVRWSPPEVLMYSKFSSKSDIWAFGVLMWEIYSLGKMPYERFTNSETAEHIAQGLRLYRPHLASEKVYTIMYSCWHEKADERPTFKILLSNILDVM
ASSAY REMARKS: biochemical
MEASUREMENT CONDITIONS: read-out: BTK inhibition (%), 0.75 uM BTK, […] probe 3l, 15 min preincubation
OBSERVED PROPERTY: inhibition at 10 µM (%)
Return type: number; implicit unit %.

Solved cases below.
CCC(C)SSc1ncc[nH]1 (stereo not shown): 2.3
COC(=O)C1=CO[C@@H](O[C@@H]2O[C@H](CO)[C@@H](O)[C@H](O)[C@H]2O)[C@H]2[C@@H]1C(=O)C[C@@H]2C: 6.9
Cc1cc(C(C)(C)C)cc(C)c1CC1=NCCN1: -0.8
COc1ccc(-c2nc(N3CCOCC3)c3sc(CN(C)c4ncc(C(=O)NO)cn4)cc3n2)cn1: 15.2

Query: Provide inhibition at 10 µM value for the following compound: "O=C1NC(=O)C(c2cnc3ccccn23)=C1c1cn2c3c(cc(F)cc13)CN(C(=O)N1CCCCC1)CC2"
Response: 80

Query: Annotate the compound "CC(C)Oc1ccc(-c2nn([C@@H](C)c3oc4ccc(F)cc4c(=O)c3-c3cccc(F)c3)c3ncnc(N)c23)cc1F" with its measured inhibition at 10 µM.
Response: -2.1

Query: Answer with the recorded inhibition at 10 µM of "CS(=O)(=O)Nc1ccc([N+](=O)[O-])cc1OC1CCCCC1" only.
Response: 3.4

Query: Give reported inhibition at 10 µM value for "O=C1CC[C@@]2(O)[C@H]3Cc4ccc(O)c5c4[C@@]2(CCN3CC2CC2)[C@H]1O5"
Response: -24.1

Query: Read the entry "O=C(Cc1ccc(-c2ccc(OCCN3CCOCC3)cc2)cn1)NCc1ccccc1" and write its reported inhibition at 10 µM.
Response: -2.8
